Ref: the supplement of paper PMC11061612

Tested on: NY (Osteosarcoma)
procedure-summary: combination Emax (second highest fraction inhibited in the dose matrix, 72 h); higher = more inhibition; extreme values may be limits of the assay
readout: combination Emax
A bare number is all that is needed in reply.

molecule	combination Emax
COc1cccc2c1C(=O)c1c(O)c3c(c(O)c1C2=O)C[C@@](O)(C(=O)CO)C[C@@H]3O[C@H]1C[C@H](N)[C@H](O)[C@H](C)O1 [Doxorubicin] + Cc1cc2ncnn2cc1Nc1ncc2c(n1)n(C1CCOCC1)c(=O)n2C [AZD7648] (first compound max 1 µM, 7x7, partner max 10 µM)	0.581

State combination Emax (NY (Osteosarcoma)) of C[C@@H](Oc1cc(-c2cnn(C3CCNCC3)c2)cnc1N)c1c(Cl)ccc(F)c1Cl [Crizotinib] + Cn1cnc2c(F)c(Nc3ccc(Br)cc3Cl)c(C(=O)NOCCO)cc21 [Selumetinib] (first compound max 10 µM, 7x7, partner max 10 µM) .
0.279

###

Test system: ECC10 (Gastric Carcinoma);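 note: after 72 h of two-drug dosing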
procedure-summary: Bliss excess, mean over the matrix (fraction); higher = more synergy
Entries are grouped by Bliss excess into these classes: range A = under -0.002, range B = from -0.002 up to 0.03, range C = 0.03 and over

compound	class-name
CC1(C)CCC(CN2CCN(c3ccc(C(=O)NS(=O)(=O)c4ccc(NCC5CCOCC5)c([N+](=O)[O-])c4)c(Oc4cnc5[nH]ccc5c4)c3)CC2)=C(c2ccc(Cl)cc2)C1 [Venetoclax] + C=CCn1c(=O)c2cnc(Nc3ccc(N4CCN(C)CC4)cc3)nc2n1-c1cccc(C(C)(C)O)n1 [AZD1775] (first compound max 1 µM, partner max 1 µM)	range C
Cc1c2c(nn1C)CSCc1cc(n(C)n1)CSc1cc(c3ccccc3c1)OCCCc1c(C(=O)O)n(C)c3c-2c(Cl)ccc13 [AZD5991] + C1CN(CCC1(C(=O)N[C@@H](CCO)C2=CC=C(C=C2)Cl)N)C3=NC=NC4=C3C=CN4 [Capivasertib] (first compound max 1 µM, 7x7, partner max 3 µM)	range C
O=C(c1cc(Cc2n[nH]c(=O)c3ccccc23)ccc1F)N1CCN(C(=O)C2CC2)CC1 [Olaparib] + COc1nnc2ccc(N3CCC(c4ccc(OCCN5CCN(C)C(=O)[C@H]5C)cc4)CC3)nn12 [AZD5153] (first compound max 10 µM, 7x7, partner max 1 µM)	range A
CS(=O)(=O)CCNCc1ccc(-c2ccc3ncnc(Nc4ccc(OCc5cccc(F)c5)c(Cl)c4)c3c2)o1 [Lapatinib] + C[C@@H](Oc1cc(-c2cnn(C3CCNCC3)c2)cnc1N)c1c(Cl)ccc(F)c1Cl [Crizotinib] (first compound max 10 µM, 7x7, partner max 10 µM)	range A
CN(CCO)CC[C@H](CSc1ccccc1)Nc1ccc(S(=O)(=O)NC(=O)c2ccc(N3CCC([C@@H](O)c4ccccc4-c4ccc(Cl)cc4)CC3)cc2)cc1S(=O)(=O)C(F)(F)F [AZD4320] + Cc1cc2ncnn2cc1Nc1ncc2c(n1)n(C1CCOCC1)c(=O)n2C [AZD7648] (first compound max 1 µM, 7x7, partner max 10 µM)	range B

Band assignment needed for Cc1cc2ncnn2cc1Nc1ncc2c(n1)n(C1CCOCC1)c(=O)n2C [AZD7648] + O=C(c1cc(Cc2n[nH]c(=O)c3ccccc23)ccc1F)N1CCN(C(=O)C2CC2)CC1 [Olaparib] (first compound max 10 µM, 7x7, partner max 10 µM) please.
range A

Band assignment needed for Cc1c2c(nn1C)CSCc1cc(n(C)n1)CSc1cc(c3ccccc3c1)OCCCc1c(C(=O)O)n(C)c3c-2c(Cl)ccc13 [AZD5991] + CCN(CCO)CCCOc1ccc2c(Nc3cc(CC(=O)Nc4cccc(F)c4)[nH]n3)ncnc2c1 [AZD2811] (first compound max 1 µM, 7x7, partner max 1 µM) please.
range B

Band assignment needed for CC1(C)CCC(CN2CCN(c3ccc(C(=O)NS(=O)(=O)c4ccc(NCC5CCOCC5)c([N+](=O)[O-])c4)c(Oc4cnc5[nH]ccc5c4)c3)CC2)=C(c2ccc(Cl)cc2)C1 [Venetoclax] + CS(=O)(=O)CCNCc1ccc(-c2ccc3ncnc(Nc4ccc(OCc5cccc(F)c5)c(Cl)c4)c3c2)o1 [Lapatinib] (first compound max 1 µM, 7x7, partner max 10 µM) please.
range B

Band assignment needed for Cc1c2c(nn1C)CSCc1cc(n(C)n1)CSc1cc(c3ccccc3c1)OCCCc1c(C(=O)O)n(C)c3c-2c(Cl)ccc13 [AZD5991] + Cn1cnc2c(F)c(Nc3ccc(Br)cc3Cl)c(C(=O)NOCCO)cc21 [Selumetinib] (first compound max 1 µM, 7x7, partner max 3 µM) please.
range B

Band assignment needed for C=CCn1c(=O)c2cnc(Nc3ccc(N4CCN(C)CC4)cc3)nc2n1-c1cccc(C(C)(C)O)n1 [AZD1775] + C[C@@H]1COCCN1C2=NC(=NC(=C2)C3(CC3)[S@](=N)(=O)C)C4=C5C=CNC5=NC=C4 [AZD6738] (first compound max 1 µM, partner max 10 µM) please.
range C

Band assignment needed for N#Cc1cnc(Nc2cc(NC[C@H]3CNCCO3)c(C(F)(F)F)cn2)cn1 [SRA737] + CCc1c2c(nc3ccc(O)cc13)-c1cc3c(c(=O)n1C2)COC(=O)[C@]3(O)CC [SN-38] (first compound max 10 µM, 7x7, partner max 0.3 µM) please.
range B

Band assignment needed for CCc1c2c(nc3ccc(O)cc13)-c1cc3c(c(=O)n1C2)COC(=O)[C@]3(O)CC [SN-38] + CN(C)CCCOc1ccc(-c2ccc3ncc4c(c3c2)n(C2CCOCC2)c(=O)n4C)cn1 [AZD0156] (first compound max 0.3 µM, 7x7, partner max 1 µM) please.
range A

Band assignment needed for N#Cc1cnc(Nc2cc(NC[C@H]3CNCCO3)c(C(F)(F)F)cn2)cn1 [SRA737] + C=CCn1c(=O)c2cnc(Nc3ccc(N4CCN(C)CC4)cc3)nc2n1-c1cccc(C(C)(C)O)n1 [AZD1775] (first compound max 10 µM, partner max 1 µM) please.
range C
